# System: HEL
# method notes: Cytostatic against Homo sapiens (human) HEL cells assessed as alteration in cell morphology by microscopy
# Format: ADME, cell-based
readout: Activity

{"columns": ["molecule", "result"],
 "data": [
  ["C/C(=N\\NC(=O)c1ccncc1)c1ccccc1Br", "Toxic"],
  ["COc1ccc(OC)c(/C(C)=N/NC(=O)c2ccncc2)c1", "Toxic"],
  ["C/C(=N\\NC(=O)c1ccncc1)c1ccccc1O", "Toxic"],
  ["C/C(=N\\NC(=O)c1ccncc1)c1ccc(Br)cc1", "Toxic"],
  ["C/C(=N\\NC(=O)c1ccncc1)c1ccc(O)cc1", "Toxic"]
]}

## Input Which Activity value is on record for O=C(NN=C1CCCCCC1)c1ccncc1 [N'-CYCLOHEPTYLIDENEISONICOTINOHYDRAZIDE] ?
## Output Toxic

## Input Which Activity value is on record for C/C(=N\NC(=O)c1ccncc1)c1cccc([N+](=O)[O-])c1 ?
## Output Toxic

## Input Which Activity value is on record for C/C(=N\NC(=O)c1ccncc1)c1ccc([N+](=O)[O-])cc1 ?
## Output Toxic

## Input Which Activity value is on record for COc1ccc(/C(C)=N/NC(=O)c2ccncc2)c(OC)c1 ?
## Output Toxic

## Input Which Activity value is on record for C/C(=N\NC(=O)c1ccncc1)c1ccc(Cl)cc1 ?
## Output Toxic

## Input Which Activity value is on record for C/C(=N\NC(=O)c1ccncc1)c1ccc(O)cc1O ?
## Output Toxic

## Input Which Activity value is on record for C/C(=N\NC(=O)c1ccncc1)c1ccc(Cl)cc1Cl ?
## Output Toxic
